molecular target: UniProt:P32246; experiment: calcium flux in CCR1 transfected cells, Method A (Fluo-4 NW, FLIPR TETRA); assay type: cell-based; settings: cells stably expressing recombinant CCR1 and G-alpha-16, MIP-1 alpha at EC80
measurement.type: pIC50
Numbers only, as −log10 of the molar value.

Sample answers from the record:
{"structure.smiles.string": "CC[C@H](NC(=O)N1CCCc2c1cnn2-c1ccc(F)cc1)c1cncc(Br)c1", "measurement": 9.40}
{"structure.smiles.string": "CNS(=O)(=O)c1ccc(CNC(=O)N2CCCc3c2cnn3-c2ccc(F)cc2)c(F)c1", "measurement": 7.96}
{"structure.smiles.string": "CC[C@H](NC(=O)N1CCCc2c1cnn2-c1ccc(F)cc1)c1ccnc(S(C)(=O)=O)c1", "measurement": 9.40}

Prompt line: For CC[C@H](NC(=O)N1CCCc2c1cnn2-c1ccc(F)cc1)c1ccc(Br)nc1 , what is its reported pIC50?
Response line: 7.72

---

target: CCR1 (Homo sapiens); assay: calcium flux in CCR1 transfected cells, Method B (Calcium 4 dye, HAMAMATSU FDSS6000); format: cell-based; settings: cells stably expressing recombinant CCR1 and G-alpha-16, MIP-1alpha at EC80
measurement.type: pIC50
Numbers only, as −log10 of the molar value.

Reference set, count: 3
{"molecule": "CCCC(NC(=O)N1CCCc2c1cnn2-c1ccc(F)cc1)c1cncc(Br)c1 (centres unmarked) [Example 39]", "pIC50": 9.40}
{"molecule": "CC[C@H](NC(=O)N1c2cnn(-c3ccc(F)cc3)c2CCC1C(F)(F)F)c1ccc(S(C)(=O)=O)c(OC)c1 (some centres unmarked) [Example 84]", "pIC50": 7.85}
{"molecule": "CCC[C@H](NC(=O)N1CCCc2c1cnn2C1CCCCC1)c1ccnc(S(C)(=O)=O)c1 [Example 65]", "pIC50": 6.48}

Please supply pIC50 for each of the following items, keeping them in order.
1. O=C(Nc1cccc(C(F)(F)F)c1)N1CCCc2c1cnn2-c1ccc(F)cc1 [Example 15]
2. CCC[C@H](NC(=O)N1c2cnn(-c3ccc(F)cc3)c2CCC1C)c1ccnc(S(C)(=O)=O)c1 (single isomer, unassigned) [Example 81]
3. CCC[C@H](NC(=O)N1CCCc2c1cnn2-c1ccc(F)c(Cl)c1)c1ccnc(S(C)(=O)=O)c1 [Example 86]
4. CCC[C@H](NC(=O)N1CCCc2c1cnn2-c1ccc(F)cc1)c1ccnc(S(C)(=O)=O)c1 [Example 60]
5. C[C@H](NC(=O)N1CCCc2c1cnn2-c1ccc(F)cc1)c1ccccc1 [Example 2]

Response line:
1. 6.94
2. 8.40
3. 8.70
4. 9.52
5. 6.34

---

target: CCR1 (Homo sapiens, UniProt P32246); experiment: calcium flux in CCR1 transfected cells, Method A (Fluo-4 NW, FLIPR TETRA); type: cell-based; conditions: cells stably expressing recombinant CCR1 and G-alpha-16, MIP-1 alpha at EC80
Sequence (P32246 whole entry): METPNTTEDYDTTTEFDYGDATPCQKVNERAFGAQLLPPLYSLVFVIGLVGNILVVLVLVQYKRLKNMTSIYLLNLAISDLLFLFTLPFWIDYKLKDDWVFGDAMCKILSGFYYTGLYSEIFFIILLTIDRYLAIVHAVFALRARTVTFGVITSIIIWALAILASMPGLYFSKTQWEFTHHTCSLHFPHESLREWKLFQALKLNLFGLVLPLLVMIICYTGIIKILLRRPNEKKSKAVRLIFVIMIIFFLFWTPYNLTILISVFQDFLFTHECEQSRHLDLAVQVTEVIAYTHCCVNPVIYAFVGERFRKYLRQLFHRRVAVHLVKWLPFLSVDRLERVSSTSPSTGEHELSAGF
Record form. Attribute: IC50. Fill in for each entry.
Returns: string containing the number followed by the unit.

Example results:
{"structure.smiles.string": "C[C@@H](CO)NS(=O)(=O)c1ccc(CNC(=O)N2CCCc3c2cnn3-c2ccc(F)cc2)cc1", "IC50": "4 nM"}
{"structure.smiles.string": "CS(=O)(=O)c1cccc(CNC(=O)N2CCCc3c2cnn3-c2ccc(F)cc2)c1", "IC50": "31 nM"}
{"structure.smiles.string": "O=C(NCc1cc(Cl)cc(Cl)c1)N1CCCc2c1cnn2-c1ccc(F)cc1", "IC50": "33 nM"}

Prompt line: Report IC50 for CCC[C@H](NC(=O)N1CCCc2c1cnn2-c1ccc(F)cc1F)c1ccnc(S(C)(=O)=O)c1 tested on CCR1 (Homo sapiens, UniProt P32246).
Response line: 1 nM
